- measurement-target: cGMP-dependent 3',5'-cyclic phosphodiesterase [574-941] (Homo sapiens, UniProt O00408)
- Construct: 574-941
- Sequence (O00408 574-941): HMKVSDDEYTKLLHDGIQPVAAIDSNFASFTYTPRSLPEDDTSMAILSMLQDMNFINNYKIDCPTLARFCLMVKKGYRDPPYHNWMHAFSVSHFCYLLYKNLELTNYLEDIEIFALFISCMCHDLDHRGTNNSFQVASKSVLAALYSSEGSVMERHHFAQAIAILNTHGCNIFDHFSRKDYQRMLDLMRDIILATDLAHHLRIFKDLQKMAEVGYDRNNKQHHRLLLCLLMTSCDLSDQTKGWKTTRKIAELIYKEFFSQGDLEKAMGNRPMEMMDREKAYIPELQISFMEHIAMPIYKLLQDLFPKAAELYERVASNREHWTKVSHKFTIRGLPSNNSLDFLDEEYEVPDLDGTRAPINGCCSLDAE
- test-protocol: Phosphodiesterase (PDE) Inhibition Assay
pIC50: −log10 of the molar value.
endpoint: pIC50

# structure, measurement-target, measured-value
measured = [
    ("COc1ccc(C(=O)Nc2c(Cl)cncc2Cl)cc1OC1CCCC1", "cGMP-dependent 3',5'-cyclic phosphodiesterase [574-941] (Homo sapiens, UniProt O00408)", 4.27),
]

(1) CN1CC(=O)N2[C@H](c3ccc4c(c3)OCO4)c3[nH]c4ccccc4c3C[C@@H]2C1=O
(2) CCCc1nc(C)c2c(=O)[nH]c(-c3cc(S(=O)(=O)N4CCN(CC)CC4)ccc3OCC)nn12
Q: Sorting by pIC50 in descending order, would 1 or 2 appear first? Answer with the label corresponding to your selection.
Result: 2
(2: 5.51, 1: 3.89)
